Cited source for all entries: patent US12252481B2

What pEC50 was measured for each of the following?
system: human beta-coronavirus OC43; assay: OC43 coronavirus antiviral assay in HeLa cells (cytopathic effect, cell-titer-glo); type: cell-based; settings: Betacoronavirus 1, OC43, HeLa, 144 h, 6 days at 33° C., read-out: EC50 (class)
pEC50: −log10 of the molar value.

Item: CC(C)([C@H](NC(=O)C(F)(F)F)C(=O)N1C[C@H]2[C@@H]([C@H]1C(=O)N[C@H](C#N)C[C@@H]1CCNC1=O)[C@H]1C=C[C@@H]2C1)C(F)(F)F [Compound 102a] | pEC50: > 7.00

Item: CC(C)(C)[C@H](NC(=O)C(F)(F)F)C(=O)N1C[C@@H]2[C@@H]3C=C[C@@H]([C@H]4C[C@@H]34)[C@@H]2C1C(=O)N[C@H](C#N)C[C@@H]1CCNC1=O (stereo partly drawn) [Example 88] | pEC50: 6.00 to 7.00

Item: CC(C)(C)[C@H](NC(=O)C12CC(C1)C2)C(=O)N1C[C@H]2[C@@H]([C@H]1C(=O)N[C@H](C#N)C[C@@H]1CCNC1=O)[C@H]1C=C[C@@H]2C1 [Compound 66] | pEC50: 6.00 to 7.00
